Molecular target: Gamma-secretase subunit PEN-2 (Homo sapiens, UniProt Q9NZ42)
Sequence (Q9NZ42 whole entry): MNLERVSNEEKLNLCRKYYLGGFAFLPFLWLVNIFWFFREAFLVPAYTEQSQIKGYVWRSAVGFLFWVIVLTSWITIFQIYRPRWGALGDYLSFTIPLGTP
Assay: Inhibitory activity against gamma-secretase relative to DAPT
parameter-measured: Relative activity

Recorded Relative activity, per entry:
[[record]]
compound_smiles = "C[C@H](NC(=O)Cc1cc(F)cc(F)c1)C(=O)N[C@@H](Cc1ccccc1)C(=O)NC(c1ccccc1)c1ccccc1"
numeric_result = 1

[[record]]
compound_smiles = "C[C@H](NC(=O)Cc1cc(F)cc(F)c1)C(=O)N[C@@H](Cc1ccccc1)C(=O)OC(C)(C)C"
numeric_result = 1


P: C[C@H](NC(=O)Cc1cc(F)cc(F)c1)C(=O)N[C@@H](Cc1ccccc1)C(=O)NCc1ccccc1
Q: CCCCNC(=O)[C@H](Cc1ccccc1)NC(=O)[C@H](C)NC(=O)Cc1cc(F)cc(F)c1
// max by Relative activity over [ P , Q ] Respond using the label that marks the chosen record.
P
(P: 1, Q: 0.3)

----------
Molecular target: Gamma-secretase (Homo sapiens) (UniProt Q96BI3+Q9NZ42+Q8WW43+P49768+Q92542+P49810)
Experiment: Inhibitory activity against gamma-secretase relative to DAPT
Format: protein-complex assay
parameter-measured: Relative activity

Recorded Relative activity, per entry:
[[record]]
compound_smiles = "C[C@H](NC(=O)Cc1cc(F)cc(F)c1)C(=O)N[C@@H](Cc1ccccc1)C(=O)NCc1ccc(Br)cc1"
target_of_assay = "Gamma-secretase (Homo sapiens) (UniProt Q96BI3+Q9NZ42+Q8WW43+P49768+Q92542+P49810)"
numeric_result = 0.6

[[record]]
compound_smiles = "C[C@H](NC(=O)Cc1cc(F)cc(F)c1)C(=O)N[C@@H](Cc1ccccc1)C(=O)NCc1ccc(C(=O)c2ccccc2)cc1"
target_of_assay = "Gamma-secretase (Homo sapiens) (UniProt Q96BI3+Q9NZ42+Q8WW43+P49768+Q92542+P49810)"
numeric_result = 30


I: COC(=O)c1ccc(CNC(=O)[C@H](Cc2ccccc2)NC(=O)[C@H](C)NC(=O)Cc2cc(F)cc(F)c2)cc1
II: COc1ccc(CNC(=O)[C@H](Cc2ccccc2)NC(=O)[C@H](C)NC(=O)Cc2cc(F)cc(F)c2)cc1
// max by Relative activity over [ I , II ] Respond using the label that marks the chosen record.
I
(I: 0.6, II: 0.4)

----------
Molecular target: Gamma-secretase (Homo sapiens) (UniProt Q96BI3+Q9NZ42+Q8WW43+P49768+Q92542+P49810)
Test: Inhibitory activity against gamma-secretase relative to DAPT
Format: protein-complex assay
parameter-measured: Relative activity

Recorded Relative activity, per entry:
[[record]]
compound_smiles = "C[C@H](NC(=O)Cc1cc(F)cc(F)c1)C(=O)N[C@@H](Cc1ccccc1)C(=O)NCc1ccc(F)cc1"
numeric_result = 0.1

[[record]]
compound_smiles = "C[C@H](NC(=O)Cc1cc(F)cc(F)c1)C(=O)N[C@@H](Cc1ccccc1)C(=O)NCc1ccccc1Cl"
numeric_result = 0.1


1: COc1ccccc1CNC(=O)[C@H](Cc1ccccc1)NC(=O)[C@H](C)NC(=O)Cc1cc(F)cc(F)c1
2: COc1cccc(CNC(=O)[C@H](Cc2ccccc2)NC(=O)[C@H](C)NC(=O)Cc2cc(F)cc(F)c2)c1
// max by Relative activity over [ 1 , 2 ] Respond using the label that marks the chosen record.
1

----------
Target: Gamma-secretase (Homo sapiens) (UniProt Q96BI3+Q9NZ42+Q8WW43+P49768+Q92542+P49810)
Experiment: Inhibitory activity against gamma-secretase relative to DAPT
Type: protein-complex assay
parameter-measured: Relative activity

Recorded Relative activity, per entry:
[[record]]
compound_smiles = "C[C@H](NC(=O)Cc1cc(F)cc(F)c1)C(=O)N[C@@H](Cc1ccccc1)C(=O)NCc1ccc(Cl)cc1"
parameter_measured = "Relative activity"
numeric_result = 0.6

[[record]]
compound_smiles = "C[C@H](NC(=O)Cc1cc(F)cc(F)c1)C(=O)N[C@@H](Cc1ccccc1)C(=O)NCc1cccc(Cl)c1"
parameter_measured = "Relative activity"
numeric_result = 0.1


I: C[C@H](NC(=O)Cc1cc(F)cc(F)c1)C(=O)N[C@@H](Cc1ccccc1)C(=O)NCc1cccc(Br)c1
II: C[C@H](NC(=O)Cc1cc(F)cc(F)c1)C(=O)N[C@@H](Cc1ccccc1)C(=O)NCc1ccccc1Br
Identify the item whose Relative activity is the smaller number: I or II Respond using the label that marks the chosen record.
I
